GI50 reference
Test system: NCI-H226
measurementNotes: NCI tumour cell line growth inhibition, 48 h
Calls of active or inactive are those of the source. Rule as the data show it: active = GI50 up to about 1.1 µM and inactive = higher.
assayMetric: GI50

| molecule | resultValue |
| --- | --- |
| NC1(c2cc3ccccc3s2)CCCC1 | > 100 µM (inactive) |
| O=C(Cn1c(=O)oc2ccc(C(=O)c3cccc(Cl)c3)cc21)c1ccccc1 | 40.9 µM (inactive) |
| Nc1ccc2c(c1)S(=O)(=O)c1cc(O)ccc1O2 | > 100 µM (inactive) |
| COC(=O)c1ccccc1CC1Cc2cc3c(cc2C1=O)CCC3 (stereo unspecified) | 18.5 µM (inactive) |
| O=C(c1ccc(O)cc1O)C1C(c2ccc(O)cc2)OC(c2ccc(O)cc2)C1C(=O)c1ccc(O)cc1O (stereo unspecified) | 17.2 µM (inactive) |
| CN1Cc2cc(O)c(O)cc2C(O)C1 (stereo unspecified) | > 100 µM (inactive) |
| Cc1ccc2c(c1C)CC1(Cc3c(ccc4c3CCC4)C1=O)C2=O (stereo unspecified) | > 100 µM (inactive) |
| CCOC(=O)c1c(-c2ccccc2)c(-c2ccccc2)cn1C | > 10 µM (inactive) |
| CC(C)(C)C(=O)/C=C/c1ccc(Oc2ccccc2)cc1 | 19.6 µM (inactive) |
| Nc1c2c(nc3ccccc13)-c1ccccc1NCCC2 | 25.4 µM (inactive) |
| CCCCn1c(-c2ccc([N+](=O)[O-])cc2)cs/c1=N/N=C1\C(=O)Nc2ccc(Br)cc21 | 21.1 µM (inactive) |
